QUANTITY KIND: melting point

Study these solved cases before continuing.
> print(dat)
                                   compound  quantity.kind  observed.result
1                          O=C(O)CSC(F)(F)F  melting point           130 °C
2  CN1CCNC(=O)C1c1ccc(N)cc1 (configuration not stated)  melting point    153 to 154 °C
3   O=C(Nc1ccccc1Oc1cc(Cl)cc(Cl)c1)C1CCNCC1  melting point    138 to 139 °C

response.value for C[C@@H](NC(=O)c1ccc(-c2ccc(Cl)cc2)s1)[C@](O)(Cn1cncn1)c1ccc(F)cc1F (field: melting point) = 169 to 170 °C

response.value for CCOC(=O)NCC(C)C(NC(=O)OCC)NC(=O)OCC (configuration not stated) (field: melting point) = 138 to 140 °C

response.value for COc1cc(OC)c2c(c1)N1CCCCC1CC2=O (configuration not stated) (field: melting point) = 91 to 94 °C

###

QUANTITY KIND: melting point

response.value for CC(C)C[C@H](NC(=O)OC(C)(C)C)[C@@H](O)C[C@H](c1ccccc1)C(C)C (field: melting point) = 95 to 96 °C

response.value for CC(=O)Nc1ccc(S(=O)(=O)CCCCNS(=O)(=O)c2ccc(C)cc2)cc1 (field: melting point) = 93 to 95 °C

response.value for CCOC(=S)Nc1nc(OCc2ccc(F)cc2)ncc1F (field: melting point) = 109 to 119 °C

response.value for Cn1cc(CCN2CCC3(CC2)CNC(=O)O3)c2ccccc21 (field: melting point) = 158 to 161 °C

response.value for CC(C)(C)OC(=O)NC1CC2CCCC(C1)N2Cc1ccccc1 (centres undefined) (field: melting point) = 154 to 155 °C

###

melting point by entry:

> print(dat)
                                 molecule  observed.result
1  CC(C)c1c(Sc2cccc(Cl)c2)nc(COC(N)=O)n1C    145 to 146 °C

Turning now to a further record.
response.value for COc1cccc(COc2cccc3c2CN(C2CCC(=O)NC2=O)C3=O)c1 (stereo not given) (field: melting point) = 225 to 227 °C

###

melting point by entry:

Study these solved cases before continuing.
> print(dat)
                                   compound  quantity.kind  observed.result
1  CCCCC1CSC(C(=O)Nc2c(SC)cc(C)nc2SC)c2cc(OC)c(OC)cc2C1 (stereo unspecified)  melting point    143 to 145 °C
2  Cc1cc(Oc2c(Cl)cc(C(F)(F)F)cc2Cl)nn1C(=S)NC(C)C  melting point      92 to 94 °C
3  CC1CN2CC(=O)N(C)c3ccc(Cl)cc3C2(c2ccccc2)O1 (stereo unspecified)  melting point    142 to 143 °C
4                  Nc1cc(C2SCCCS2)c(Cl)cc1F  melting point    112 to 115 °C
5  Cc1cc(-c2cc(C(F)(F)F)n3ncc(C(=O)Nc4cc(S(=O)(=O)NC(C)(C)CO)sc4Cl)c3n2)ccc1C(F)(F)F  melting point           207 °C

Turning now to a further record.
response.value for CC(=O)Nc1cnc(-c2ccccc2)nc1NCC(=O)N(C)c1ccccc1 (field: melting point) = 200 to 201 °C

###

QUANTITY KIND: melting point

response.value for c1ccc(CN2CCc3[nH]c4ccc(Oc5ccccc5)cc4c3C2)cc1 (field: melting point) = 102 °C

###

melting point by entry:

Study these solved cases before continuing.
> print(dat)
                                   compound  observed.result
1                  CCCCc1nc(-c2ccco2)n[nH]1      73 to 74 °C
2   CC1(C)c2cccnc2C(=O)c2ccc(Cl)cc2S1(=O)=O    189 to 191 °C
3  CC(C)(C)OC(=O)C[C@@H](NS(=O)(=O)c1ccc2c(Cl)cnc(Cl)c2c1)C(=O)OC(C)(C)C    106 to 110 °C
4  CCCc1nc2c(N)nc3cccnc3c2n1Cc1cc(-c2ccc(F)cc2)no1    238 to 239 °C
5      CC=CCn1c(C)c(C)c2cnnc(OCc3ccccc3)c21      81 to 84 °C
6     Cc1oc(C=Cc2cccc(C(F)(F)F)c2)nc1C(=O)O    204 to 205 °C
7   Clc1ccc(Cn2c(-c3ccccn3)nc3ccccc32)cc1Cl    227 to 229 °C
8        Cc1c(Nc2c(I)cncc2C#N)ccc2[nH]ccc12    192 to 194 °C

response.value for CC(C)c1noc(C2CCN(c3ccc4oc(-c5ccc(S(C)(=O)=O)cc5F)nc4c3)CC2)n1 (field: melting point) = 206 to 209 °C

response.value for C[C@H](O)[C@H](CO)N(Cc1ccc(C#N)cc1)S(=O)(=O)c1ccc(Cl)cc1 (field: melting point) = 124 to 126 °C

###

melting point by entry:
Only the number, expressed in °C, is required.

> print(dat)
                                smiles.data  value.units  observed.result
1         CN(c1ccc(N)cc1)c1nc(=O)c2cccnc2s1           °C              250
2  COc1ccc(-c2nnc(C(=O)N3CC(Oc4ccc(CN5CCC(C)(CO)CC5)cc4)C3)o2)cc1           °C              102

response.value for CCOC(=O)c1ccc2oc(CN3CCN(c4ccc(Cl)nn4)CC3)nc2c1 (field: melting point) = 140

response.value for CN1CCC(=C2c3cc(Br)n(C)c3CCn3ccnc32)CC1 (field: melting point) = 179

###

QUANTITY KIND: melting point

Study these solved cases before continuing.
> print(dat)
                                   compound  observed.result
1                    c1ccc(CSc2nnn[nH]2)cc1     98 to 100 °C
2  CC(=O)SC(CC(=S)c1ccc(-c2ccccc2)cc1)C(=O)O (centres undefined)    116 to 118 °C
3  CCOc1ccc2c(c1)C(N)(c1ccccc1Cl)C(=O)N2 (centres undefined)    173 to 175 °C
4  O=C(O)CCC12CCCn3c1c(c1ccccc13)CCO2 (centres undefined)    153 to 155 °C
5          COc1cccc(C(=O)O)c1CCc1cccc(Cl)c1            91 °C
6  COc1cc(C2CCN(C3COC3)CC2)ccc1Nc1ncc2ccc(-c3ccccc3OC)n2n1      78 to 85 °C

response.value for COc1ccc2c(c1)CCC1C2CCC2(C)C(OC(C)(C)C)CCC12 (centres undefined) (field: melting point) = 91 to 92.5 °C

response.value for CCNC(=O)C1=C(C(=O)Nc2cc(OC3CCCC3)c(Cl)cc2F)CCCC1 (field: melting point) = 187 to 189 °C

response.value for Nc1ncnc2c1nc(OC(=O)c1ccccc1)n2Cc1ccccc1 (field: melting point) = 227 to 229 °C

response.value for CC(C)c1cccc(C(C)C)c1NC(=O)NCC1CCc2ccccc21 (centres undefined) (field: melting point) = 183 to 185 °C

response.value for CCc1nn2c(-c3ccc(OC)cc3Cl)cccc2c1N(CCF)CCOC (field: melting point) = 45.8 to 52.8 °C

response.value for COc1ccc(-c2noc(C)c2-c2ccc(OC)cc2)cc1 (field: melting point) = 95 to 99 °C

response.value for COC(=O)C1CCc2c(noc2-c2ccc(Cl)cc2)C1 (centres undefined) (field: melting point) = 141 to 143 °C

response.value for CCCc1nc2c(N)nc3cccnc3c2n1CCCCCC(N)=O (field: melting point) = 216 to 218 °C

response.value for O=C(Cn1c(-c2ccc(Cl)cc2)nc2cccnc21)N(c1ccccc1)c1ccccc1 (field: melting point) = 176 to 178 °C

response.value for CC(C)(CCCc1cccnc1)NC(=O)C=CC=C(c1cccc(F)c1)c1cccc(F)c1 (field: melting point) = 135 to 136 °C

response.value for CC(C)(C)[Si](C)(C)OC1CN(c2ccc([N+](=O)[O-])cc2F)C1 (field: melting point) = 98.5 to 99.5 °C

response.value for O=CNc1ccc(OCCNCC(O)c2ccc(O)cc2)cc1 (centres undefined) (field: melting point) = 164 to 165 °C

response.value for CC(C)NC(=O)NC(=O)c1ccnc([N+](=O)[O-])c1 (field: melting point) = 132 to 133 °C

###

QUANTITY KIND: melting point

Study these solved cases before continuing.
> print(dat)
                                   molecule  observed.result
1  Cc1onc(-c2ccccc2)c1-c1ccc(S(=O)(=O)NCC(=O)O)cc1    242 to 248 °C
2               CC(C)NC(=S)N1CCc2nc(N)sc2C1    179 to 180 °C

response.value for Cc1ccc(S(=O)(=O)On2nnc3ccc(Cl)cc32)cc1 (field: melting point) = 94 to 96 °C

response.value for COc1ccc(CC2(C(=O)N[C@@H](Cc3ccc(NC(=O)c4c(Cl)cccc4Cl)cc3)C(=O)O)CCCCC2)cc1 (field: melting point) = 136 to 140 °C

response.value for CCOC(=O)C1=C(COCc2ccc(CN(C)C)s2)NC(C)=C(C(=O)OC)C1c1ccccc1Cl (stereo not given) (field: melting point) = 81 to 83 °C
